# MEASURED_TARGET: Pdr3 (UniProt P33200)
# Sequence: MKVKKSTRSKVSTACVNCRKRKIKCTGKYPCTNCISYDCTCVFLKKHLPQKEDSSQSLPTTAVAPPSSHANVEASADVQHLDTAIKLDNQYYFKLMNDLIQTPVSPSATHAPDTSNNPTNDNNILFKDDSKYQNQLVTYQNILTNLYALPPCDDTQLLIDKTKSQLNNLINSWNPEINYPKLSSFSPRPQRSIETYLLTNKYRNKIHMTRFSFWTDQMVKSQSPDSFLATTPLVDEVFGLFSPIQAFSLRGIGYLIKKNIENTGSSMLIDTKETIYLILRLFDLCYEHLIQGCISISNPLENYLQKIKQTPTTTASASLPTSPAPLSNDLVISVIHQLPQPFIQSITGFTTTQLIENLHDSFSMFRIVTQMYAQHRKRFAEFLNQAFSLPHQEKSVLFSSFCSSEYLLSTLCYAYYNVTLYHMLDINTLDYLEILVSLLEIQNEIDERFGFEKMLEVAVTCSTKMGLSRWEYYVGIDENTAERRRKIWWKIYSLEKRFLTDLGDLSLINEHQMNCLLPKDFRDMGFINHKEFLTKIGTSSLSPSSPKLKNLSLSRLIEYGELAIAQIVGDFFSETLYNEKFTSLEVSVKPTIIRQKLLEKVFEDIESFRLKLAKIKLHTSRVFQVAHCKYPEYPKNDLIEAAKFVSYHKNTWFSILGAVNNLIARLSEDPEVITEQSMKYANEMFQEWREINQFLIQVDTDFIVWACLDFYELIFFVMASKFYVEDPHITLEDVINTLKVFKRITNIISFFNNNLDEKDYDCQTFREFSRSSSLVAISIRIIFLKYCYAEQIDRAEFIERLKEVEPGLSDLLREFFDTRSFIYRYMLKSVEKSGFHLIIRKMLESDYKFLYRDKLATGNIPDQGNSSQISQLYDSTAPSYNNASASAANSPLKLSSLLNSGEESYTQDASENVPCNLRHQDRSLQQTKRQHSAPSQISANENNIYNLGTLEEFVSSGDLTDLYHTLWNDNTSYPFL
# ASSAY_PROTOCOL: PBM E-score (8-mer binding enrichment) (E-score (-0.5 to 0.5)); higher = stronger / more preferred TF binding
# CONDITION_DESCRIPTION: protein concentration: 200 nM; construct: GST-full length
Over roughly 33,000 sequences, “E-score (-0.5 to 0.5)” has its median near -0.035; the highest 2% begin near 0.35. The list comes from a sample in which the highest values are over-represented; it also holds close analogues and randomly drawn sequences.
Binary call on PBM E-score: criterion met from 0.05 upward, criterion not met beneath that.

| CHAIN_SEQUENCE | QUALITATIVE_LABEL |
| --- | --- |
| ATCCGCCG | criterion met |
| ATCCGTTC | criterion met |
| CCGGACAC | criterion met |
| CGGCCGGA | criterion met |
| AGGGCCCG | criterion met |
| ACGGACTC | criterion met |
| CTTAGGGA | criterion not met |
| ATCCGCCA | criterion met |
| TCTGGCAA | criterion not met |
| CCCGGATA | criterion met |
| CCCGGATC | criterion met |
| CTCCGTTA | criterion met |
| CCGTGTCA | criterion met |
| TAAGCACA | criterion met |
| GCCGGACA | criterion met |
| GACGTCTC | criterion not met |
| ACCGGACA | criterion met |
| ACTCAGCC | criterion not met |
| CCGGCCCG | criterion met |
| CCGGCCGC | criterion met |
| ACCCGCCG | criterion met |
| ATACTCCA | criterion not met |
| CCGGACAG | criterion met |
| TAGTTGGA | criterion not met |
| AAAGCTCA | criterion not met |
| AGCGGATC | criterion met |
| ATCGGATC | criterion met |
| ACAAGGTG | criterion not met |
| AGGCCGGC | criterion met |
| CGCAGATC | criterion not met |
| AGGCCGGA | criterion met |
| CGATTTCA | criterion not met |
| CAATTCCC | criterion met |
| AGAGTAGC | criterion not met |
| CAATTCCA | criterion met |
| CCGGCCGG | criterion met |
| ACCCGTTG | criterion not met |
| AACTGGCA | criterion not met |
| CAGGGCTA | criterion not met |
| ACGGCCGG | criterion met |
| CTCCGTTC | criterion met |
| TACTCAGA | criterion not met |
| AAGCGCTT | criterion met |
| GGAGTAAC | criterion met |
| ACCCGCCA | criterion not met |
| CGGCCGAC | criterion met |
| ATAATCAT | criterion met |
| AACTCCTG | criterion not met |
| AGTCTGAT | criterion not met |
| CTCGGATA | criterion met |
| CTCGGATC | criterion met |
| GTCAGAAC | criterion not met |
| TCACTGAA | criterion met |
| TCCGGACA | criterion met |
| CTTGTCCC | criterion met |
| GGCCAAGA | criterion not met |
| AGTGCCTC | criterion not met |
| CGCGGCTC | criterion met |
| TCTCTACA | criterion not met |
| TCCATCAA | criterion met |
| AGCAGATC | criterion not met |
| CTGCAGGC | criterion not met |
| ATACTCCC | criterion met |
| GCTCGAAA | criterion not met |
| CCGGCCCA | criterion not met |
| AAATTCCG | criterion met |
| GCGACCTA | criterion not met |
| CCCGGACA | criterion met |
| ATAGACCC | criterion met |
| GGCCTTCA | criterion not met |
| CGGCTTGC | criterion met |
| ACGGCCGA | criterion met |
| ACATTTAT | criterion not met |
| CGGGCCCG | criterion met |
| AAATTCCA | criterion met |
| ATCCGTTG | criterion met |
| CTTACCAA | criterion not met |
| ATCTTAGC | criterion not met |
| CAATTCCG | criterion met |
| CCGGACTC | criterion met |
| AGTCTTAG | criterion not met |
| ACACTTCC | criterion met |
| TCGGCCGA | criterion met |
| CCGGACTA | criterion met |
| ATCCGTTA | criterion met |
| CACAGAGG | criterion not met |
| ACTGGGCG | criterion not met |
| ATCTTTCC | criterion met |
| TCGGCCAA | criterion met |
| CCCAGATC | criterion not met |
| CAGATGCA | criterion not met |
